Tested on: ScN2a
procedure.details: Antiprion activity in mouse ScN2a cells assessed as reduction in PrPSc level at 2 uM after 3 days by dot blot assay relative to control
Type: cell-based
Design: scale not given: the % may be the effect or the level left
Classification field: true = Activity at or over 40%; false = Activity under 40%.

>>> discrete_label("CCCCNC(=O)c1cc(NC(=O)CN2CCCCC2)ccc1OC1CCCCC1")
"false"
>>> discrete_label("CCCCNC(=O)c1cc(NC(=O)CN2CCCC2)ccc1OC12CC3CC(CC(C3)C1)C2")
"false"
>>> discrete_label("CCCCNC(=O)c1cc(NC(=O)CN2CCCC2)ccc1Oc1ccc(F)cc1")
"true"
>>> discrete_label("CCCCNC(=O)c1cc(NC(=O)CN2CCCC2)ccc1Oc1ccc(OCCCC)cc1")
"true"
>>> discrete_label("CCCCNC(=O)c1cc(NC(=O)CN2CCCCC2)ccc1Oc1ccc(Cl)cc1")
"false"
>>> discrete_label("CCCCNC(=O)c1cc(NC(=O)CN2CCCC2)ccc1Oc1ccc(C(F)(F)F)cc1")
"false"
>>> discrete_label("CCCCNC(=O)c1cc(NC(=O)CN2CCCC2)ccc1Oc1ccccc1")
"true"
